I'd be grateful if you could share measured IC50 for these entries.
organism: Cavia porcellus; assay: Compound was tested for inhibition of LTD4 induced contraction of guinea pig ileum; assay type: functional
Numbers only, in µM.

The following compounds have reported results that may help.
Query: Using the record for CCCCC/C=C\C\C=C/C=C/C=C/c1conc1CCC(=O)OC , report its IC50.
Reply: 60

Query: Using the record for CCCCC/C=C\C\C=C/C=C/C=C/C1CC(CCC(=O)OC)=NO1 (stereo not drawn) , report its IC50.
Reply: 95

Others:
Query: Using the record for CCCCC/C=C\C\C=C/C=C/C=C/c1conc1CCCC(=O)OC , report its IC50.
Reply: 56
